target: human TLR8 (Homo sapiens, UniProt Q9NR97); assay: TLR8 inhibition reporter assay (HEK-Blue cells, SEAP reporter, R848 stimulation); settings: HEK-Blue cells overexpressing human TLR8, SEAP reporter, R848 15.9 μM
Sequence (Q9NR97 27-1041): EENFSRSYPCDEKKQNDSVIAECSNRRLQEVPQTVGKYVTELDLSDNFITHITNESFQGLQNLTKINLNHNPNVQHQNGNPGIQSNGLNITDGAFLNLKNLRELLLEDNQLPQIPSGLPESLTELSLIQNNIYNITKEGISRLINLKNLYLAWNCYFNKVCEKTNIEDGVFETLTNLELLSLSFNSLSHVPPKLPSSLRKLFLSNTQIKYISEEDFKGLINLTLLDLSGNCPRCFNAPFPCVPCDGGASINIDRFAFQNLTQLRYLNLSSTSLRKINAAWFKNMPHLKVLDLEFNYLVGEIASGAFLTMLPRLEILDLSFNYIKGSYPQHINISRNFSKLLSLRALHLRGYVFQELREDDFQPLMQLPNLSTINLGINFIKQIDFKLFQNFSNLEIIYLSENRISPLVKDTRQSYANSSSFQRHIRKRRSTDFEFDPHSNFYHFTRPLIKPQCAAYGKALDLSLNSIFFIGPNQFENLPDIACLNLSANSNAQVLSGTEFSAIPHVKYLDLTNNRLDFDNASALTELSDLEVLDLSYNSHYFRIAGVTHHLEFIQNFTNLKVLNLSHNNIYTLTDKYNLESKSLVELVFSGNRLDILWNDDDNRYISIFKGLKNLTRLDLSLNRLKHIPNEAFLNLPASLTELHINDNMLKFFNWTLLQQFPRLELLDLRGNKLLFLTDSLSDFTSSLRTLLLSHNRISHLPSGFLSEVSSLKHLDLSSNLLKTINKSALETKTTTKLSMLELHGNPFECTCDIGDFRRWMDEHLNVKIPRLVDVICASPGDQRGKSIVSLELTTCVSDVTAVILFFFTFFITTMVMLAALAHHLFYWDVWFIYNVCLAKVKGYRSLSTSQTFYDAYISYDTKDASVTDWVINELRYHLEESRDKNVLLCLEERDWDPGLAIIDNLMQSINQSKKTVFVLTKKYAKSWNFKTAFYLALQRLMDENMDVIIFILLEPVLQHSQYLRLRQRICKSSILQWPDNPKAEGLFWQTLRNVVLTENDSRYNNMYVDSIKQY
pIC50: −log10 of the molar value.
The label depends only on pIC50: yes (1) if it is at least 8, no (0) if it is smaller.

Completed entries (count: 5):
Cc1cc(-c2[nH]nc(C3CCC(N4CCC(N(C)C)CC4)CC3)c2C(C)C)cn2ncnc12 (single isomer, unassigned) [Example 292] | yes (1)
Cc1cc(-c2[nH]nc(-c3ccc4c(c3)CCN(C(=O)CN(C)C)C4)c2C(C)C)cn2ncnc12 | no (0)
Cc1cc(-c2[nH]nc(C(=O)NCC3CN(CC(C)(C)C)CCO3)c2C(C)C)cn2ncnc12 (stereo not drawn) [Example 144] | yes (1)
Cc1cc(-c2[nH]nc(C(=O)N[C@H]3CC[C@H](NCC4CCOCC4)CC3)c2C(C)C)cn2ncnc12 | no (0)
Cc1cc(-c2c(C(C)C)c(C(=O)NC3CCN(C(C)C)CC3)nn2C)cn2ncnc12 | yes (1)

Query compound follows.
Req: # bool: pIC50 of COc1cc(-c2[nH]nc(-c3cnc(C4CCN(C5COC5)CC4)cn3)c2C(C)C)cn2ncnc12 >= 8
Resp: no (0)

* * *

Target: human TLR9 (Homo sapiens, UniProt Q9NR96)
Sequence (Q9NR96 26-1032): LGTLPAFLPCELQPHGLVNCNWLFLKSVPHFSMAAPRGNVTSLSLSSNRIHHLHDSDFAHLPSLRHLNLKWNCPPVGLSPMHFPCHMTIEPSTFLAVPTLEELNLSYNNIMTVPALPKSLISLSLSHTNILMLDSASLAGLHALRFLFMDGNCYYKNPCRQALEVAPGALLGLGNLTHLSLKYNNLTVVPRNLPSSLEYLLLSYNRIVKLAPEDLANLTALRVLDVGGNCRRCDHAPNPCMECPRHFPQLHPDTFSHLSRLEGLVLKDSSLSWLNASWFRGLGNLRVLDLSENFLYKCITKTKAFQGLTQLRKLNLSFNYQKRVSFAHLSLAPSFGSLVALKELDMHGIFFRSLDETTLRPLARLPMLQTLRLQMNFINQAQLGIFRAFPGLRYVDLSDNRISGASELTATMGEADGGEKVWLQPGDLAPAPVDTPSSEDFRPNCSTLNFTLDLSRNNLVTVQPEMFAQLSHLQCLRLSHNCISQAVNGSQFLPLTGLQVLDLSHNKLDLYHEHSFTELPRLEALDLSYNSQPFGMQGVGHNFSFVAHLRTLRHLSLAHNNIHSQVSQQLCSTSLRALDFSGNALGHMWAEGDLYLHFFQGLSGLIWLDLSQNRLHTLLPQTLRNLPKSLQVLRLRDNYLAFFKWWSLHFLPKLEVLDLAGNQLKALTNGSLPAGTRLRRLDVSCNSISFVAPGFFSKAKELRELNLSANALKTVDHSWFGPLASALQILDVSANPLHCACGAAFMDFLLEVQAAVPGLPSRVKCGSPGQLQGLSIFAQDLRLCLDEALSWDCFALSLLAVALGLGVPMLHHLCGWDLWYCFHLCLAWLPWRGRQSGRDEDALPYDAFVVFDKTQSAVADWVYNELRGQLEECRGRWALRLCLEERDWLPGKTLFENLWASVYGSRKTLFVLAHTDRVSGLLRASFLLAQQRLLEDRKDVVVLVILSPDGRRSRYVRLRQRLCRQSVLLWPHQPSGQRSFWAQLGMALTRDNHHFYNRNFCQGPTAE
Test: TLR9 inhibition reporter assay (HEK-Blue cells, SEAP reporter, ODN2006 stimulation)
Settings: HEK-Blue cells overexpressing human TLR9, SEAP reporter, ODN2006 5 nM
The entries below come with measured IC50 values attached.
The answer is to be given in µM; state only the numeric part.

Cc1cc(-c2[nH]nc(C(=O)NCC3CN(CC(C)(C)C)CCO3)c2C(C)C)cn2ncnc12 (stereo not drawn) [Example 144] | 15.2
Cc1cc(-c2[nH]nc(C(=O)NC3CCN(C(C)C)CC3)c2C(C)C)cn2ccnc12 [Example 37] | 27.9
COc1cc(-c2[nH]nc(-c3ccc(C4CCN(CC(N)=O)CC4)cc3)c2C(C)C)cn2ncnc12 [compound 322] | 35.8
Cc1cc(-c2[nH]nc(C(=O)NC3CCN(C(C)C)CC3)c2C(C)C)cn(C)c1=O [Example 39] | 3.56

So, Cc1cc(-c2[nH]nc(C(=O)NC3CCN(C4COC4)CC3)c2C(C)C)cn2ncnc12 [Example 70] ? Its IC50 was 6.61

* * *

Target: UniProt Q9NR96
Sequence (Q9NR96 26-1032): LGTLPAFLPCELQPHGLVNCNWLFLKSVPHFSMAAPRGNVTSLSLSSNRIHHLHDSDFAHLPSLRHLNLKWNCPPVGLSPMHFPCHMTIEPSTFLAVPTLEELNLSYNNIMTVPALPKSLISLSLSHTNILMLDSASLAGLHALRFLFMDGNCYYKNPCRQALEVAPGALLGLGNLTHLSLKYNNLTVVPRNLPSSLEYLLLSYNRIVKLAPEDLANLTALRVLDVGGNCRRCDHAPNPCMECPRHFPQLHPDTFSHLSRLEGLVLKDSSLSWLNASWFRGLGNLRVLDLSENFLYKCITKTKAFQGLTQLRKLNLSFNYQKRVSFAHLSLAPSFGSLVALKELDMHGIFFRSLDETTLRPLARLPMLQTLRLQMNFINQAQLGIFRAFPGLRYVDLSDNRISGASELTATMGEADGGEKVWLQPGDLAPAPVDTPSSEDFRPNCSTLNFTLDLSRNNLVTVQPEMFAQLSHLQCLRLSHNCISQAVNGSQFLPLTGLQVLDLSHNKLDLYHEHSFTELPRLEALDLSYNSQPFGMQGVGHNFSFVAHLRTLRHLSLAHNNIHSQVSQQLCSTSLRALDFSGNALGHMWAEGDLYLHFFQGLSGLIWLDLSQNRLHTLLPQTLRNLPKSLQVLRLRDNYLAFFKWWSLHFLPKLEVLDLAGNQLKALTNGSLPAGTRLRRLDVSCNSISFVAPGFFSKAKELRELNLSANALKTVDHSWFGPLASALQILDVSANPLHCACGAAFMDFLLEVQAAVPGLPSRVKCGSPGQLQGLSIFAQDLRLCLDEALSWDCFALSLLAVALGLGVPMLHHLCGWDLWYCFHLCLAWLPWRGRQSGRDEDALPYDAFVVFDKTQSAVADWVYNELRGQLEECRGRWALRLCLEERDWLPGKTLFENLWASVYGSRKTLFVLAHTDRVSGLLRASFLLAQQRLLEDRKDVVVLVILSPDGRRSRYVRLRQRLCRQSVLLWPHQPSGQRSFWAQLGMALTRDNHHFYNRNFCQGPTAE
Test: TLR9 inhibition reporter assay (HEK-Blue cells, SEAP reporter, ODN2006 stimulation)
Conditions: HEK-Blue cells overexpressing human TLR9, SEAP reporter, ODN2006 5 nM
Below is a list of entries, each paired with its recorded IC50 value.

CCN1CCC(c2ccc(-c3n[nH]c(-c4cc(OC)c5ncnn5c4)c3C(C)C)cc2)CC1 | > 50 µM
CCN1CC(C(=O)N(C)C2CCC(c3n[nH]c(-c4cc(C)c5ncnn5c4)c3C(C)C)CC2)C1 (single isomer, unassigned) [Example 306] | > 50 µM
Cc1cc(-c2[nH]nc(-c3ccc4c(c3)CCN(C(C)C)C4)c2C(C)C)cn2ncnc12 | > 50 µM
COc1cc(-c2[nH]nc(-c3cnc(C4CCN(CC5CC5)CC4)cn3)c2C(C)C)cn2ncnc12 | > 50 µM
COc1cc(-c2[nH]nc(-c3nc4c(s3)CNCC4)c2C(C)C)cn2ncnc12 | > 50 µM

Next, consider the following molecule.
Lab note: measured IC50 of CCN1CCC(c2ccc(-c3n[nH]c(-c4cc(OC)c5ncnn5c4)c3C(C)C)nc2)CC1 was > 50 µM

* * *

target: human TLR7 (Homo sapiens); assay: TLR7 inhibition reporter assay (HEK-Blue cells, SEAP reporter, gardiquimod stimulation); conditions: HEK-Blue cells overexpressing human TLR7, SEAP reporter, gardiquimod 7.5 μM
Sequence (Q9NYK1 27-1049): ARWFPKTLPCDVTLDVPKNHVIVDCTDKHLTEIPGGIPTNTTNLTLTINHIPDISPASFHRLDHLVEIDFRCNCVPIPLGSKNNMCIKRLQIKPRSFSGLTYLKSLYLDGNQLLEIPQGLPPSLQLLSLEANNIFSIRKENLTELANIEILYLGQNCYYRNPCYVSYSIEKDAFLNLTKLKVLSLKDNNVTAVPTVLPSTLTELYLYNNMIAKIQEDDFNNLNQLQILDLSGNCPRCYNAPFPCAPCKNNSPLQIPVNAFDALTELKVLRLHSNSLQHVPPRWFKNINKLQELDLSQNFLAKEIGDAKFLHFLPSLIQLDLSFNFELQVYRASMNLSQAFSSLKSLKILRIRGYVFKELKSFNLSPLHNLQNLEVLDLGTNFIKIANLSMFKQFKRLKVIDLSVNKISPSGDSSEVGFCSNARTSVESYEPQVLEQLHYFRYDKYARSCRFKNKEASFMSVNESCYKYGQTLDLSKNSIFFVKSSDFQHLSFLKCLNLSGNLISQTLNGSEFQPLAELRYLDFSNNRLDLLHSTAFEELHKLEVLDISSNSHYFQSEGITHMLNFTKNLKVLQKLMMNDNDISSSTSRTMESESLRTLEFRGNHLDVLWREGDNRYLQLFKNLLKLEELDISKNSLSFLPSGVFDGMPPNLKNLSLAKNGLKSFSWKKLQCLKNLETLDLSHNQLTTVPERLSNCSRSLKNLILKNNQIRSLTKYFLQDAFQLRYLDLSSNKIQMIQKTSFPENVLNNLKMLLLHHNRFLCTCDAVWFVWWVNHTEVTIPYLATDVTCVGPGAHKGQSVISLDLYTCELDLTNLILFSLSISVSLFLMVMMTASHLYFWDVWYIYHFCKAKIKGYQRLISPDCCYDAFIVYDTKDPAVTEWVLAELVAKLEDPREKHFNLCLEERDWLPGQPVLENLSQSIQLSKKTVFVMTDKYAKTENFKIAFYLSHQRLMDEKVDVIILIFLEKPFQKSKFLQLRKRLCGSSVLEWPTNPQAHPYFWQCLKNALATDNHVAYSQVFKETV
Reported pIC50 values follow for various compounds
Schema: pIC50 number; meaning minus log10 of the concentration expressed in molar units.

Cc1cc(-c2[nH]nc(C3CCC(NCCN(C)C)CC3)c2C(C)C)cn2ncnc12 (single isomer, unassigned) [Example 284] | 8.02
Cc1cc(-c2[nH]nc(C3CCN(C(C)C)CC3)c2C(C)C)cn2ncnc12 | 8.53
CNC1CCC(c2n[nH]c(-c3cc(C)c4ncnn4c3)c2C(C)C)CC1 (single isomer, unassigned) [Example 295] | 8.31
CCCN1CCC(NC(=O)c2n[nH]c(-c3cc(OC)c4ncnn4c3)c2CC(F)(F)F)CC1 | 8.65
Cc1cc(-c2[nH]nc(C(=O)NCCN3CCOCC3)c2C(C)C)cn2ncnc12 | 8.74

Form: compound = Cc1cc(-c2[nH]nc(C(=O)NCC3CNC3)c2C(C)C)cn2ncnc12 ; pIC50 = 9.01

Record summary for COc1cc(-c2[nH]nc(-c3cnc(C4CCN(C5COC5)CC4)cn3)c2C(C)C)cn2ncnc12 : reported pIC50 = 7.23

Memo: COc1cc(-c2[nH]nc(-c3ccc(C4CCN(CC(=O)N(C)C)CC4)cn3)c2C(C)C)cn2ncnc12 , reported pIC50: 7.30

Record Cc1cc(-c2[nH]nc(C3CCN(C)CC3)c2C(C)C)cn2ncnc12 , field pIC50: 8.64
